Recorded values, source PubChem BioAssay.

Assay: inhibitors of mutant huntingtin aggregation, primary screen, imaging, exon1htt(103Q)mCFP cells, high-content imaging (AID 483);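 also: compound exposure lasted 3 days before fixation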
Details: exon1htt(103Q)mCFP cell line, aggregate imaging, at 2 µM; stronger effect = higher value
The entries below come with measured inhibition of aggregation values attached.

| molecule | units-label | inhibition of aggregation |
| --- | --- | --- |
| CCC(C)NC(=O)C1(C)CCC(=O)N1CCc1ccc(OC)c(OC)c1 (stereo not drawn) | % | -2.3 |
| COc1ccc2[nH]c(C)c(CCN3C(=O)OC(C)(C)C3(C)O)c2c1 (stereo not drawn) | % | -15.3 |
| CCOc1cccc(OCCCCn2ccnc2)c1 | % | -7.7 |
| CCOC(=O)c1cccnc1SCC(=O)NC(C)CC (stereo not drawn) | % | 23.4 |
| CCOc1ccc(NC(=O)CN(c2cc(C)cc(C)c2)S(=O)(=O)c2c(C)noc2C)cc1 | % | 23.6 |
| COc1cc2c(cc1OC)CN(CC(=O)Nc1cccc(C)c1)CC2 | % | -6.2 |
| CC(=O)N(C(C)=O)c1ncc2c([nH]c3ccccc32)c1C#N | % | -79 |
| O=C(NCc1ccc(F)cc1)C1CCN(C(=O)NCc2ccccc2)CC1 | % | 2.3 |
| Cc1ccc(-n2nnnc2SCC(=O)Nc2c(C)n(C)n(-c3ccccc3)c2=O)cc1 | % | 4.2 |
| O=C(Cc1cccs1)NCc1ccc(F)cc1 | % | 10.1 |
| Cc1nnc(N2C(=O)C(O)=C(C(=O)c3ccco3)C2c2ccc(F)cc2)s1 (stereo not drawn) | % | -4.4 |
| Cc1cc(C)n(-c2nc3c(c(=O)[nH]c(=O)n3C)n2Cc2ccc(F)cc2)n1 | % | -21.6 |
| O=c1ccc2cc3c([nH]c4ccc(Br)cc43)oc-2c1O | % | -0.5 |
| COc1ccc(-n2ncc3c(N4CCN(c5cccc(C)c5C)CC4)ncnc32)cc1 | % | -12.6 |
| CCc1c(C(=O)NCCc2ccc(OC)c(OC)c2)[nH]c(C)c1C(C)=O | % | -21.3 |
| COC(=O)c1cc(S(=O)(=O)N2CCC(C)CC2)ccc1F | % | -56.8 |
| COc1ccc(C2CC(c3cccs3)n3nc(N)nc3N2)cc1 (stereo not drawn) | % | 7.8 |
| O=C(CSc1ncccn1)NCc1ccccc1 | % | 12.3 |
| CCc1ccc(N2CC(C(=O)OCC(=O)NC3CCS(=O)(=O)C3)CC2=O)cc1 (stereo not drawn) | % | 12 |
| Cc1ccc(N2CCN(c3ccc(C)cc3)C(CC(=O)O)C2=O)cc1 (stereo not drawn) | % | 3.3 |
| Cc1ccc(C)c(C(=O)CC2(O)C(=O)Nc3ccccc32)c1 (stereo not drawn) | % | 23.6 |
| O=C(CCN1C(=O)COc2ccccc21)N1CCN(c2ccccn2)CC1 | % | -0.4 |
| O=c1[nH]c(N2CCc3ccccc32)nc2c1CCCC2 | % | 11 |

###

Biological target: Voltage-gated potassium channel subunit beta-2 (Rattus norvegicus) (UniProt P62483)
Sequence (P62483 whole entry, looked up): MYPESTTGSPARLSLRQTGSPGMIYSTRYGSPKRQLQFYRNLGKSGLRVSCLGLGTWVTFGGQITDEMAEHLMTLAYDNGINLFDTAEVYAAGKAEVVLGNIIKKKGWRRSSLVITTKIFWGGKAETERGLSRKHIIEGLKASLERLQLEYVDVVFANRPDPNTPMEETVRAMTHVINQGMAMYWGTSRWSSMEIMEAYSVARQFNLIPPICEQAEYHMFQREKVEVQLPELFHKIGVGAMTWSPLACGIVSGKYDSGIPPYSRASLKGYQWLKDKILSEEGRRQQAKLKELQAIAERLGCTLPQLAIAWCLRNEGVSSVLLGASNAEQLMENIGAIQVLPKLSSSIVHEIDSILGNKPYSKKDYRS
Test: KvBeta positive modulators, primary screen, biochemical, NADPH fluorescence (AID 623);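 also: fluorescence intensity change per second fitted from 20 to 320 s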
Conditions: Recombinant KvBeta, NADPH fluorescence decrease slope, 10 min; at 10 µM; stronger effect = lower value

| compound | subject-of-test | NADPH fluorescence slope |
| --- | --- | --- |
| O=C1C(=O)N(Cc2cccnc2)C(c2ccccn2)/C1=C(/O)c1ccccc1 (stereo not drawn) | Voltage-gated potassium channel subunit beta-2 (Rattus norvegicus) (UniProt P62483) | -6.6e-05 |
| O=C(c1ccccc1)c1ccncc1 | Voltage-gated potassium channel subunit beta-2 (Rattus norvegicus) (UniProt P62483) | -2.9e-05 |
| Cc1cccc2cc(CN(CC3CCCO3)C(=O)c3cnccn3)c(=O)[nH]c12 (stereo not drawn) | Voltage-gated potassium channel subunit beta-2 (Rattus norvegicus) (UniProt P62483) | -9.9e-06 |
| Cc1ccc(N2CCN(S(=O)(=O)N(C)C)CC2)c(C)c1 | Voltage-gated potassium channel subunit beta-2 (Rattus norvegicus) (UniProt P62483) | -3.5e-06 |
| Cc1nn(CC(=O)N2CCOCC2)c(=O)c2ccccc12 | Voltage-gated potassium channel subunit beta-2 (Rattus norvegicus) (UniProt P62483) | -0.000146 |
| CC1C=CC(C)C(C(=O)O)C1C(=O)O (stereo not drawn) | Voltage-gated potassium channel subunit beta-2 (Rattus norvegicus) (UniProt P62483) | -5.7e-05 |
| Cc1ccc(-n2ncc3c(N4CCC(C(N)=O)CC4)ncnc32)c(C)c1 | Voltage-gated potassium channel subunit beta-2 (Rattus norvegicus) (UniProt P62483) | -3.9e-05 |
| CCOC(=O)N1CCN(c2c(N3CCc4ccccc4C3)c(=O)c2=O)CC1 | Voltage-gated potassium channel subunit beta-2 (Rattus norvegicus) (UniProt P62483) | -2.6e-05 |
| CCc1c(C)c2cc(Cl)c(O)c(CN3CCCCC3)c2oc1=O | Voltage-gated potassium channel subunit beta-2 (Rattus norvegicus) (UniProt P62483) | -2.8e-08 |
| N#CC1=C(SCC(=O)c2cc3ccccc3oc2=O)NC(=O)C(C#N)C12CCCC2 (stereo not drawn) | Voltage-gated potassium channel subunit beta-2 (Rattus norvegicus) (UniProt P62483) | -5.2e-05 |
| O=C(c1ccc(S(=O)(=O)N2CCOCC2)cc1)N(c1ccc(F)cc1)C1C=CS(=O)(=O)C1 (stereo not drawn) | Voltage-gated potassium channel subunit beta-2 (Rattus norvegicus) (UniProt P62483) | 1.6e-05 |
| O=C(NC1CCCC1)c1ccc2nc[nH]c2c1 | Voltage-gated potassium channel subunit beta-2 (Rattus norvegicus) (UniProt P62483) | -3.9e-06 |
| CC(C)(C)NC(=O)CSc1nnc(-c2ccccn2)n1-c1ccccc1 | Voltage-gated potassium channel subunit beta-2 (Rattus norvegicus) (UniProt P62483) | -2e-05 |
| CS(=O)(=O)N1CCCC(C(=O)NCc2ccccc2Cl)C1 (stereo not drawn) | Voltage-gated potassium channel subunit beta-2 (Rattus norvegicus) (UniProt P62483) | -1.1e-05 |
| O=C(CSc1n[nH]c(-c2ccco2)n1)Nc1sc2c(c1C(=O)Nc1ccccc1)CCCC2 | Voltage-gated potassium channel subunit beta-2 (Rattus norvegicus) (UniProt P62483) | -3.7e-05 |
| Cc1cc(=O)oc2c(CN3CCC(C)CC3)c(O)c(Cl)cc12 | Voltage-gated potassium channel subunit beta-2 (Rattus norvegicus) (UniProt P62483) | 4.3e-06 |
| COc1ccc(-c2noc(-c3ccccc3C(=O)NCc3ccco3)n2)cc1 | Voltage-gated potassium channel subunit beta-2 (Rattus norvegicus) (UniProt P62483) | -4.7e-05 |
| Cc1ccc(-c2csc3ncn(-n4c(C)ccc4C)c(=O)c23)o1 | Voltage-gated potassium channel subunit beta-2 (Rattus norvegicus) (UniProt P62483) | 3.1e-05 |
| CN(C(=O)c1ccc2c(=O)n3c(nc2c1)CCCCC3)c1ccccc1 | Voltage-gated potassium channel subunit beta-2 (Rattus norvegicus) (UniProt P62483) | -0.000341 |
| Cc1cc(=O)oc(C)c1C(=O)NCCc1ccccc1 | Voltage-gated potassium channel subunit beta-2 (Rattus norvegicus) (UniProt P62483) | -4.2e-05 |
| CCOC(=O)N1CCN(c2c(N3CCN(c4ccccc4OC)CC3)c(=O)c2=O)CC1 | Voltage-gated potassium channel subunit beta-2 (Rattus norvegicus) (UniProt P62483) | -2.1e-05 |
| Cc1cc(CN2CCN(CCC#N)CC2)c(O)c(C2(C)CCCCC2)c1 | Voltage-gated potassium channel subunit beta-2 (Rattus norvegicus) (UniProt P62483) | 4e-05 |
| c1ccc2ncc(-n3cnnn3)cc2c1 | Voltage-gated potassium channel subunit beta-2 (Rattus norvegicus) (UniProt P62483) | -2e-05 |

###

Assay: DUSP6 inhibitors restoring Erk phosphorylation by chemical complementation, primary imaging in DUSP6-transfected HeLa (AID 609)
Conditions: HeLa MKP-3 transfected, phospho-Erk imaging KS statistic; measured here: nuclear c-Myc green intensity z-score; at 10 µM; cells stimulated with TPA for 15 min
measured-property: z-score

| compound | value-observed |
| --- | --- |
| CCCC1Cc2c(sc3nc(SC)nc(N)c23)CO1 (stereo unspecified) | 0.0787 |
| COC(=O)CSc1nnc(C)c(=O)[nH]1 | 1.52 |
| O=C(O)C1[C@H]2C(=O)N(Cc3cccs3)C[C@]23C=C[C@H]1O3 (stereo partly specified) | 1.12 |
| c1ccc(-n2ncc3c(N4CCCC4)ncnc32)cc1 | 1.25 |
| CCNC(=O)COn1c(SCC(=O)NCC)nc2ccccc2c1=O | 0.056 |
| CCOC(=O)CSc1nc(N2CCOCC2)c2c(c1C#N)CC(C)(C)N(C)C2 | 0.944 |

###

Experiment: DUSP6 inhibitors restoring Erk phosphorylation by chemical complementation, primary imaging in DUSP6-transfected HeLa (AID 609)
Details: HeLa MKP-3 transfected, phospho-Erk imaging KS statistic; measured here: nuclear pErk red intensity z-score; at 10 µM; stronger effect = higher value; cells stimulated with TPA for 15 min
Each item that follows carries a reported z-score.
measured-property: z-score

| compound | measured-property | value-observed |
| --- | --- | --- |
| O=C(COc1ccc(Cl)cc1)Nc1ccccc1CO | z-score | -0.247 |
| O=C(CSc1nc2ccccc2s1)Nn1cnnc1 | z-score | 0.477 |
| Cc1cc(OCC(=O)Nn2cnnc2)ccc1Br | z-score | 0.858 |
| CN1Cc2c(N3CCOCC3)nc(SCc3ccccc3)c(C#N)c2CC1(C)C | z-score | -1.03 |
| O=C1C(=O)N(Cc2cccnc2)C(c2ccccn2)/C1=C(/O)c1ccc(F)cc1 (stereo unspecified) | z-score | -0.331 |
| CN(C)c1nc(OCCNC(=O)Nc2ccccc2)nc(N(C)C)n1 | z-score | -0.187 |
